These data points were gathered from PubChem BioAssay (NCI).

- Tested on: LOX IMVI melanoma
- METHOD: NCI tumour cell line growth inhibition, 48 h
Measured TGI, listed per entry.
Field format: number, assumed µM, no unit text.

> print(dat)
                                   compound  units.of.measure  recorded.result
1  O=C(O)c1ccccc1/C=C1\Cc2cc3c(cc2C1=O)CCC3                µM             31.4
2  CC1(c2ccc(Cl)cc2)C=C(c2ccc(Cl)cc2)C(C#N)=C(C(C#N)C#N)N1 (centres undefined)                µM             32.3
3  COc1ccc(/C=C2\C[C@H]3[C@@H]4CC=C5C[C@@H](O)CC[C@]5(C)[C@H]4CC[C@]3(C)\C2=N\O)cc1                µM             33.3

Please turn your attention to the following entry.
For CC(C)CCCC(C)C1CCC2C3CC([N+](=O)[O-])=C4CC(O)CCC4(C)C3CCC12C (centres undefined) the compound record lists TGI as 36.6
